Biological target: RPAcoreΔP (human, UniProt P27694;P15927;P35244 438-616;35-270;1-121)
Sequence (P27694 438-616, stated change not applied, chain 1 of 3): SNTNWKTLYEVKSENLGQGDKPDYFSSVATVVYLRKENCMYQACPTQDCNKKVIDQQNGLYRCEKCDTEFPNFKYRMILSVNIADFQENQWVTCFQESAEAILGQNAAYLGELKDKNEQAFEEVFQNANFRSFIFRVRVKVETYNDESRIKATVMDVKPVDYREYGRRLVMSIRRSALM
Sequence (P15927 35-270, stated change not applied, chain 2 of 3): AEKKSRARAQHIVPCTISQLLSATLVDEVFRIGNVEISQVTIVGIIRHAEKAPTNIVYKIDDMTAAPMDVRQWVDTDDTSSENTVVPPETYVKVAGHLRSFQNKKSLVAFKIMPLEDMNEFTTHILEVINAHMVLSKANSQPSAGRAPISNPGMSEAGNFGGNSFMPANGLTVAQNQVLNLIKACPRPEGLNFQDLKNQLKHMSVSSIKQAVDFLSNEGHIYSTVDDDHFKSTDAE
Sequence (P35244 whole entry, stated change not applied, chain 3 of 3): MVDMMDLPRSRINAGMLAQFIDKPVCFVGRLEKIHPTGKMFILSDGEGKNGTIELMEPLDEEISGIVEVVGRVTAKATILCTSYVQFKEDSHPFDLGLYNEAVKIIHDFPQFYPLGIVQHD
Experiment: BLI
readout: Kd (nM)
State the answer as a number, implicitly in nM.

Give its Kd value. Item: T8:P3 template:primer (mixed, P3 is a chimeric RNA-DNA primer (RNA/DNA boundary not in the material) with 3'-dideoxycytidine) DNA: AATCTAGTAACATAGTATACATAAGCGCTCCAGGC RNA: GCCUGGAGCGC
124
